These entries and their values trace back to patent US8362031B2.

System: Salmonella Typhimurium TA 100
experiment summary: Ames test for mutagenicity (plate assay, colony count)
measurement parameters: (+)S9 mix, 10 mg/pl., 48 hours at 37° C.
property measured: Ames test (+)S9 10 mg/pl.

| compound | subject of test | Ames test (+)S9 10 mg/pl. |
| --- | --- | --- |
| O=C(O)/C=C/c1nn(Cc2ccc(F)cc2Cl)c2cc(C(F)(F)F)ccc12 [JWS-2-40] | Salmonella Typhimurium TA 100 | Pass |
| O=C(O)c1nn(Cc2ccc(Cl)cc2Cl)c2cccnc12 [JWS-1-114] | Salmonella Typhimurium TA 100 | Pass |
| COC(=O)c1nn(Cc2ccc(Cl)cc2Cl)c2cc(F)ccc12 [JWS-1-158] | Salmonella Typhimurium TA 100 | Pass |
| O=C(O)/C=C/c1nn(Cc2ccc(F)cc2F)c2cc(C(F)(F)F)ccc12 [JWS-1-294] | Salmonella Typhimurium TA 100 | Pass |
| CCCOC(=O)c1nn(Cc2ccc(Cl)cc2Cl)c2ccccc12 [RC-MC-158] | Salmonella Typhimurium TA 100 | Pass |
| COc1ccc2c(n1)c(C(=O)NN)nn2Cc1ccc(Cl)cc1Cl [JWS-1-146] | Salmonella Typhimurium TA 100 | Pass |
| O=C(O)c1nn(Cc2ccc(Cl)cc2Cl)c2cnccc12 [JWS-1-132] | Salmonella Typhimurium TA 100 | Pass |
| NNC(=O)c1nn(Cc2ccc(F)cc2F)c2cc(C(F)(F)F)ccc12 [JWS-1-274] | Salmonella Typhimurium TA 100 | Pass |
| O=C(O)c1nn(Cc2ccc(Cl)cc2Cl)c2cc(C(F)(F)F)cnc12 [JWS-1-230] | Salmonella Typhimurium TA 100 | Pass |
| CCOC(=O)c1nn(Cc2ccc(Cl)cc2Cl)c2ccccc12 [RC-MC-156] | Salmonella Typhimurium TA 100 | Pass |

Continue with the compound presented below.
Identify measured Ames test (+)S9 10 mg/pl. corresponding to O=C(O)/C=C/c1nn(Cc2ccc(F)cc2Cl)c2cc(Cl)ccc12 [JWS-2-36] Pass

---

Tested on: Male Long Evans rats
experiment summary: In vivo antispermatogenic testing in Long Evans rats
measurement parameters: 25 mg/kg single i.p. injection; animals responding out of animals surviving; five days following injection
property measured: Response 25 mg/kg

Identify measured Response 25 mg/kg corresponding to COc1ccc2c(n1)c(C(=O)NN)nn2Cc1ccc(Cl)cc1Cl [JWS-1-146] 0/5

Identify measured Response 25 mg/kg corresponding to O=C(O)/C=C/c1nn(Cc2ccc(Cl)cc2Cl)c2ccccc12 [AF2785, reference compound] 1/5

Identify measured Response 25 mg/kg corresponding to CCCOC(=O)c1nn(Cc2ccc(Cl)cc2Cl)c2ccccc12 [RC-MC-158] 2/5

Identify measured Response 25 mg/kg corresponding to NNC(=O)c1nn(Cc2ccc(Cl)cc2Cl)c2ccccc12 [AF2364, reference compound] 3/5

---

Test system: Salmonella Typhimurium TA 100
experiment summary: Ames test for mutagenicity (plate assay, colony count)
measurement parameters: (+)S9 mix, 10 mg/pl., 48 hours at 37° C.
property measured: Ames test (+)S9 10 mg/pl.

The cases that follow already have their Ames test (+)S9 10 mg/pl. on record.
| smiles string | subject of test | Ames test (+)S9 10 mg/pl. |
| --- | --- | --- |
| NNC(=O)c1nn(Cc2ccc(Cl)cc2Cl)c2ccc(C(F)(F)F)cc12 | Salmonella Typhimurium TA 100 | Pass |
| COC(=O)c1nn(Cc2ccc(F)cc2F)c2ccc(C(F)(F)F)cc12 | Salmonella Typhimurium TA 100 | Fail |
| COC(=O)c1nn(Cc2ccc(Cl)cc2Cl)c2ccc(C(F)(F)F)cc12 | Salmonella Typhimurium TA 100 | Pass |
| NNC(=O)/C=C/c1nn(Cc2ccc(Cl)cc2Cl)c2cc(C(F)(F)F)ccc12 | Salmonella Typhimurium TA 100 | Fail |
| O=C(O)/C=C/c1nn(Cc2ccc(F)cc2F)c2cc(Cl)ccc12 | Salmonella Typhimurium TA 100 | Fail |
| COC(=O)c1nn(Cc2ccc(Cl)cc2Cl)c2ccc(OC)nc12 | Salmonella Typhimurium TA 100 | Pass |
| O=C(O)c1nn(Cc2ccc(F)cc2Cl)c2cc(C(F)(F)F)ccc12 | Salmonella Typhimurium TA 100 | Fail |
| COC(=O)c1nn(Cc2ccc(F)cc2Cl)c2cc(Cl)ccc12 | Salmonella Typhimurium TA 100 | Fail |

Identify measured Ames test (+)S9 10 mg/pl. corresponding to `COC(=O)c1nn(Cc2ccc(Cl)cc2Cl)c2ccccc12` Pass

Identify measured Ames test (+)S9 10 mg/pl. corresponding to `COC(=O)c1nn(Cc2ccc(F)cc2F)c2cc(C(F)(F)F)ccc12` Pass

Identify measured Ames test (+)S9 10 mg/pl. corresponding to `O=C(O)c1nn(Cc2ccc(Cl)cc2Cl)c2cc(Cl)ccc12` Pass

Identify measured Ames test (+)S9 10 mg/pl. corresponding to `NNC(=O)c1nn(Cc2ccc(Cl)cc2Cl)c2cc(Cl)ccc12` Pass

Identify measured Ames test (+)S9 10 mg/pl. corresponding to `COC(=O)c1nn(Cc2ccc(Cl)cc2Cl)c2cccnc12` Pass

Identify measured Ames test (+)S9 10 mg/pl. corresponding to `NNC(=O)c1nn(Cc2ccc(Cl)cc2Cl)c2cc(C(F)(F)F)cnc12` Pass

Identify measured Ames test (+)S9 10 mg/pl. corresponding to `Cc1ccc2c(C(=O)NN)nn(Cc3ccc(Cl)cc3Cl)c2c1` Pass

Identify measured Ames test (+)S9 10 mg/pl. corresponding to `NNC(=O)c1nn(Cc2ccc(F)cc2Cl)c2cc(Cl)ccc12` Pass

Identify measured Ames test (+)S9 10 mg/pl. corresponding to `O=C(O)c1nn(Cc2ccc(F)cc2F)c2cc(C(F)(F)F)ccc12` Pass

Identify measured Ames test (+)S9 10 mg/pl. corresponding to `COC(=O)C=Cc1nn(Cc2ccc(Cl)cc2Cl)c2cc(C(F)(F)F)ccc12` Fail

Identify measured Ames test (+)S9 10 mg/pl. corresponding to `NNC(=O)c1nn(Cc2ccc(Cl)cc2Cl)c2cccnc12` Pass

---

System: Salmonella Typhimurium TA 100
experiment summary: Ames test for mutagenicity (plate assay, colony count)
measurement parameters: (+)S9 mix, 10 mg/pl., 48 hours at 37° C.
property measured: Ames test (+)S9 10 mg/pl.

| smiles string | subject of test | Ames test (+)S9 10 mg/pl. |
| --- | --- | --- |
| NNC(=O)c1nn(Cc2ccc(F)cc2F)c2ccc(C(F)(F)F)cc12 | Salmonella Typhimurium TA 100 | Fail |
| O=C(O)c1nn(Cc2ccc(F)cc2Cl)c2cc(Cl)ccc12 | Salmonella Typhimurium TA 100 | Fail |
| O=C(O)c1nn(Cc2ccc(Cl)cc2Cl)c2cc(C(F)(F)F)ccc12 | Salmonella Typhimurium TA 100 | Pass |
| O=C(O)c1nn(Cc2ccc(F)cc2F)c2ccc(C(F)(F)F)cc12 | Salmonella Typhimurium TA 100 | Pass |
| NNC(=O)c1nn(Cc2ccc(F)cc2F)c2cc(Cl)ccc12 | Salmonella Typhimurium TA 100 | Fail |

Continue with the compound presented below.
Identify measured Ames test (+)S9 10 mg/pl. corresponding to `COC(=O)c1nn(Cc2ccc(F)cc2F)c2cc(Cl)ccc12` Pass

---

System: Salmonella Typhimurium TA 100
experiment summary: Ames test for mutagenicity (plate assay, colony count)
measurement parameters: (+)S9 mix, 1 mg/pl., 48 hours at 37° C.
property measured: Ames test (+)S9 1 mg/pl.

The cases that follow already have their Ames test (+)S9 1 mg/pl. on record.
| compound | subject of test | Ames test (+)S9 1 mg/pl. |
| --- | --- | --- |
| O=C(O)c1nn(Cc2ccc(Cl)cc2Cl)c2cc(C(F)(F)F)ccc12 [RC-MC-100] | Salmonella Typhimurium TA 100 | Pass |
| O=C(O)c1nn(Cc2ccc(Cl)cc2Cl)c2cc(Cl)ccc12 [DD-MC-I] | Salmonella Typhimurium TA 100 | Pass |
| COC(=O)c1nn(Cc2ccc(F)cc2Cl)c2cc(Cl)ccc12 [JWS-2-18] | Salmonella Typhimurium TA 100 | Fail |
| CCOC(=O)c1nn(Cc2ccc(Cl)cc2Cl)c2ccccc12 [RC-MC-156] | Salmonella Typhimurium TA 100 | Pass |

Identify measured Ames test (+)S9 1 mg/pl. corresponding to O=C(O)/C=C/c1nn(Cc2ccc(Cl)cc2Cl)c2ncccc12 [RC-MC-65] Fail

Identify measured Ames test (+)S9 1 mg/pl. corresponding to NNC(=O)c1nn(Cc2ccc(F)cc2F)c2cc(C(F)(F)F)ccc12 [JWS-1-274] Pass

Identify measured Ames test (+)S9 1 mg/pl. corresponding to NNC(=O)c1nn(Cc2ccc(Cl)cc2Cl)c2cc(C(F)(F)F)ccc12 [RC-MC-101] Pass

Identify measured Ames test (+)S9 1 mg/pl. corresponding to O=C(O)c1nn(Cc2ccc(Cl)cc2Cl)c2ccc(C(F)(F)F)cc12 [JWS-1-260] Pass

Identify measured Ames test (+)S9 1 mg/pl. corresponding to COC(=O)C=Cc1nn(Cc2ccc(Cl)cc2Cl)c2cc(C(F)(F)F)ccc12 [RC-MC-200] Fail
